Entry source: BindingDB's records for doi:10.7270/Q27W69N8

Biological target: M17 leucyl aminopeptidase (Plasmodium falciparum (isolate 3D7), UniProt Q8IL11)
Sequence (Q8IL11 whole entry): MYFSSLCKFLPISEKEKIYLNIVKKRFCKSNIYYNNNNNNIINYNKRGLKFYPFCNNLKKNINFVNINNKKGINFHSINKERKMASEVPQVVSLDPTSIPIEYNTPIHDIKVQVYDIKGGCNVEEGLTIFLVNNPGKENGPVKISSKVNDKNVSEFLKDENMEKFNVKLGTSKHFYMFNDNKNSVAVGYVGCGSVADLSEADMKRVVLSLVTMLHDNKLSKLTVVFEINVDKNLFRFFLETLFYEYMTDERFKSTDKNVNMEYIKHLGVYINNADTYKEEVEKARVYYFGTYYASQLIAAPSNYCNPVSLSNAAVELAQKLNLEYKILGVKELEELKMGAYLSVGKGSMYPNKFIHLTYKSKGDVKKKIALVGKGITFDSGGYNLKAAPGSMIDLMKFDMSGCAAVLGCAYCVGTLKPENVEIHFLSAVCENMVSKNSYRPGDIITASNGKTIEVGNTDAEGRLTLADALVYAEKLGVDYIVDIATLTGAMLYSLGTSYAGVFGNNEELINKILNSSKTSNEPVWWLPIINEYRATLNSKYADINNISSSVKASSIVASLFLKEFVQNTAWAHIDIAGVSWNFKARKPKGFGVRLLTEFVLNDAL
Test: P. falciparum M17LAP inhibitors, primary screen, biochemical, fluorogenic H-Leu-NHMec substrate, 1536-well (AID 1619)
quantity_kind: pIC50
// pIC50: -log10(molar conc.)

## Task Fill blank: measured pIC50 of the molecule CC(C)CC1c2c(-c3ccccc3)n[nH]c2OC(=N)C1C#N (stereo not given) is ____.
## Result 4.47

## Task Fill blank: measured pIC50 of the molecule Cc1ccc(Nc2nnc(SCC(=O)C(C#N)c3nc4ccccc4[nH]3)s2)c(C)c1 (stereo not given) is ____.
## Result 5.22

## Task Fill blank: measured pIC50 of the molecule Cc1ccc(/N=C2/S/C(=C\c3cn(CC(=O)O)c4ccccc34)C(=O)N2C)cc1 is ____.
## Result 4.94

## Task Fill blank: measured pIC50 of the molecule COc1ccc2sc(-n3c(O)c4c(c3O)CC(C)=CC4)nc2c1 is ____.
## Result 4.46

## Task Fill blank: measured pIC50 of the molecule O=C(Nn1c(O)csc1=S)C(=O)Nn1c(O)csc1=S is ____.
## Result 4.69
